B1: COX4I1 (parent)
chain: FDKEWVAKQTKRMLDMKVNPIQGL

Variants of: B1
Assay: protein stability index of a GFP-peptide fusion (GPS, HEK-293T) (PSI 1-6); higher = more stable;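 note: lentivirally expressed fusions sorted by FACS into six bins by GFP to DsRed ratio, PSI derived from sequencing read proportions per bin multiplied by bin number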
Conditions: c terminus: a fixed tail appended
Reported protein stability index is given for each of the following variants.
Could you respond with only the numeric value?

Solved cases below.
FDKEWVAKQTKRMLDMKVNMIQGL ... 2.08
FDKEWVAKQTKRMEDMKVNPIQGL ... 1.43
FDKEWVAKQAKRMLDMKVNPIQGL ... 1.41
FDKEWVAKQTKRMLDMKWNPIQGL ... 1.99
FDKEWVAKQTKRMMDMKVNPIQGL ... 1.47
FDKEWVAKQTKRMLDMKVNPIQWL ... 1.88
FDKMWVAKQTKRMLDMKVNPIQGL ... 1.26
FDKEVVAKQTKRMLDMKVNPIQGL ... 4.17
FDKEWVAKQTKRMLDMKVNPIEGL ... 1.71
FDKEWVAKQTHRMLDMKVNPIQGL ... 1.7

Param item = FDKEWVAKQTKRMLYMKVNPIQGL ; retrieve measured protein stability index.
2.36

Param item = FDKEYVAKQTKRMLDMKVNPIQGL ; retrieve measured protein stability index.
3.22

Param item = FDKEWVAKQTYRMLDMKVNPIQGL ; retrieve measured protein stability index.
3.38

Param item = FDKEWVAKQTKSMLDMKVNPIQGL ; retrieve measured protein stability index.
3.04

Param item = FDKEWVAKQMKRMLDMKVNPIQGL ; retrieve measured protein stability index.
1.91

Param item = FDKEWVAMQTKRMLDMKVNPIQGL ; retrieve measured protein stability index.
1.88

Param item = FDKEWVAKQTKRMLDMKVNVIQGL ; retrieve measured protein stability index.
1.73

Param item = FDKEWVAKQRKRMLDMKVNPIQGL ; retrieve measured protein stability index.
2.35

Param item = FDKEWVAKITKRMLDMKVNPIQGL ; retrieve measured protein stability index.
1.6

Param item = FDKEWVAPQTKRMLDMKVNPIQGL ; retrieve measured protein stability index.
2.33

Param item = FDKEWVAKQTKRMTDMKVNPIQGL ; retrieve measured protein stability index.
1.79

Param item = FDKEWVAKQTKRMLDMKVNPHQGL ; retrieve measured protein stability index.
2.19
